Assay: Ocular tissue concentrations (aqueous humor, vitreous humor, iris, retina, choroid, cornea) after topical ocular, subcutaneous and intravitreal administration
Format: in vivo, New Zealand White rabbits
Conditions: New Zealand White, rabbit, retina, topical, 1.2 mg/eye, topical ocular 1.2 mg/eye (~0.7 mg/kg/dose); 1 hr; read-out: Retina tissue Average
Where a name gives a salt, the structure may show the parent alone.
Property Measured: concentration at 1 h (ng/g)
Numbers only here, please. The scale is ng/g.

Sample COC(=O)N[C@@H](Cc1ccccc1)C(=O)N[C@@H](Cc1ccc(NS(=O)(=O)O)cc1)c1csc(-c2cccs2)n1 [Compound 1 sodium salt] ; concentration at 1 h observed: 59.2
